The measured values listed here are drawn from the supplement of paper PMC7877785.

test: self-splicing fitness, log relative to wild type (ln ratio); higher = more splicing; Tetrahymena group I intron in knt gene, E. coli kanamycin selection, DiMSum; sequences stand for … in CUCUCU…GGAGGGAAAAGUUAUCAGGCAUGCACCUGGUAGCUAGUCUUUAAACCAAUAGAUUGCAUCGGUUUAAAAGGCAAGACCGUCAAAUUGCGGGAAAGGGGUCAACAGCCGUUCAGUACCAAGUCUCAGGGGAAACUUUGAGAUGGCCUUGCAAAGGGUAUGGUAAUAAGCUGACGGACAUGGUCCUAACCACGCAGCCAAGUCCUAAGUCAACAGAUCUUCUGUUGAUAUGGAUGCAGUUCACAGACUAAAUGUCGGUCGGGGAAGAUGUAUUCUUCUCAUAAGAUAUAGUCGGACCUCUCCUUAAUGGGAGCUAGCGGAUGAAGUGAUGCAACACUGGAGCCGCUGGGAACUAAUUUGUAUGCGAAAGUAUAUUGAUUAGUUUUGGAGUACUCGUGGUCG; details: 30 °C;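 note: selection with 25 µg/mL kanamycin versus none on LB agar overnight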
Would you mind labelling by self-splicing fitness (ln)? At or over -2 is yes (1), under is no (0).

MACROMOLECULE_SEQUENCE | GROUP
UGUAAGCAAUAUUACGGUCG | yes (1)
UCGUAGCAAUAUUACGAACG | no (0)
UUGUAGCAAUAUUACGAUUA | yes (1)
CUCGAGCAAUAUUACGUGCU | no (0)
CCGUAGCAAUAUUACGAAGA | no (0)
CCUGAGCAAUAUUACGUUCA | no (0)

query: Check the entry CAACAGCAAUAUUACGUCUA : does self-splicing fitness (ln) equal or exceed -2?
result: yes (1)

query: Record UUGGAGCAAUAUUACGUAGG ; criterion: self-splicing fitness (ln) no lower than -2. Met?
result: no (0)

query: Please indicate if the recorded self-splicing fitness (ln) for UGGCAGCAAUAUUACGCCAA meets or exceeds -2.
result: yes (1)

query: Please tell me: is the sequence CAUGAGCAAUAUUACGUAAA at or over -2 in terms of self-splicing fitness (ln)?
result: no (0)

query: Reported self-splicing fitness (ln) reaches at least -2 for CGAAAGCAAUAUUACGAGCG ?
result: yes (1)

query: Item UACUAGCAAUAUUACGUCUG with self-splicing fitness (ln) of -2 or above?
result: yes (1)

query: Form field: self-splicing fitness (ln) at least -2? Entry: UCCUAGCAAUAUUACGCGUG
result: no (0)

query: For this sequence, is measured self-splicing fitness (ln) -2 or higher? ACCCAGCAAUAUUACGCGCC
result: yes (1)

----------
Measured self-splicing fitness (ln) values are reported for all entries that follow.
assay: self-splicing fitness, log relative to wild type (ln ratio); higher = more splicing; Tetrahymena group I intron in knt gene, E. coli kanamycin selection, DiMSum; sequences stand for … in CUCUCU…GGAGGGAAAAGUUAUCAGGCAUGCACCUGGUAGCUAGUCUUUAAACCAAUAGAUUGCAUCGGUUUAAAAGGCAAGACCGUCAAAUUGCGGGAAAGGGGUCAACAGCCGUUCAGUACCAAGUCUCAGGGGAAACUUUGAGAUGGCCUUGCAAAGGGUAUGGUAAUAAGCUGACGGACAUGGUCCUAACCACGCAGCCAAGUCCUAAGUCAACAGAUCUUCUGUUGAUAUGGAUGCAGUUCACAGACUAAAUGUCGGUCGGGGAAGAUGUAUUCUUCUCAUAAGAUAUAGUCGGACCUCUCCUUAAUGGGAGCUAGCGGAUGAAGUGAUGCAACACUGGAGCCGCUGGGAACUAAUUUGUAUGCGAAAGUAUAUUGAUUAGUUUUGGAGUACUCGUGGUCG; conditions: 30 °C

MACROMOLECULE_SEQUENCE | self-splicing fitness (ln)
CGGAAGCAAUAUUACGGUAC | -3.17
AUCCAGCAAUAUUACGCAGC | -1.43
CUGAAGCAAUAUUACGUAUG | -0.151
UGCCAGCAAUAUUACGGACC | -0.869
ACUCAGCAAUAUUACGGCCG | -1.87

Just so you know, measured self-splicing fitness (ln) for ACUUAGCAAUAUUACGAUGC came out at -1.04

self-splicing fitness (ln) reading for GGGCAGCAAUAUUACGAAAU : -1.42

For reference, reported self-splicing fitness (ln) for CGGCAGCAAUAUUACGAUAA stands at -2.07

----------
assay: self-splicing fitness, log relative to wild type (ln ratio); higher = more splicing; Tetrahymena group I intron in knt gene, E. coli kanamycin selection, DiMSum; sequences stand for … in CUCUCU…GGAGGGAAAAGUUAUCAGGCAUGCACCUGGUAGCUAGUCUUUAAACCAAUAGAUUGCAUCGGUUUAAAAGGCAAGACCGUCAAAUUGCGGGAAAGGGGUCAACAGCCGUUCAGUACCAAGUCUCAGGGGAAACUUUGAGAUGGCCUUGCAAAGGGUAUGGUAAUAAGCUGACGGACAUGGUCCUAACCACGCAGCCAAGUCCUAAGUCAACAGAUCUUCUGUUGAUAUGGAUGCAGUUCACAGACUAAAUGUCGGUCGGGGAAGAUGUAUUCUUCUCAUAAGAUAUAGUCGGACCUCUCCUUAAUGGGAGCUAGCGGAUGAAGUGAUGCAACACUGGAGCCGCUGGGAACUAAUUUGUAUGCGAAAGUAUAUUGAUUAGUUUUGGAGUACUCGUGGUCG; details: 37 °C
MEASURED_PARAMETER: self-splicing fitness (ln)
Enter the number alone.

MACROMOLECULE_SEQUENCE | self-splicing fitness (ln)
UAGCAGCAAUAUUACGGAUU | -1.08
UGAUAGCAAUAUUACGCCGG | 0.564
UGCAAGCAAUAUUACGAUUC | -1.31

Measured self-splicing fitness (ln), CUAGAGCAAUAUUACGCUAU : -2.47

Reported self-splicing fitness (ln) ( UUGAAGCAAUAUUACGGACA ) = 0.655

In plain terms, CUCAAGCAAUAUUACGAAGU has a documented self-splicing fitness (ln) of -2.36

The sequence listed as GUUGAGCAAUAUUACGGCAC shows self-splicing fitness (ln) equal to -0.486

Form field self-splicing fitness (ln), entry CCGCAGCAAUAUUACGUCAU : -2.25

// field: self-splicing fitness (ln); key: UUCGAGCAAUAUUACGCACA ; value = -1.45

In plain terms, GAACAGCAAUAUUACGCACG has a documented self-splicing fitness (ln) of 0.123

Input UGCCAGCAAUAUUACGGGGA . Output self-splicing fitness (ln): -0.863

Given item AGUGAGCAAUAUUACGCGUC , the value recorded as its self-splicing fitness (ln) is -2.62

Please fill in: self-splicing fitness (ln) reported for UGGGAGCAAUAUUACGCGUA = 0.46

Entry under test: CCUAAGCAAUAUUACGCUCC . Its self-splicing fitness (ln) was -2.97

Query UGCCAGCAAUAUUACGCGCC yields self-splicing fitness (ln) of -0.705

self-splicing fitness (ln) recorded for this sequence, AUAUAGCAAUAUUACGUCUG , is -0.0249

Given item GUGUAGCAAUAUUACGGGUG , the value recorded as its self-splicing fitness (ln) is -1.13

AUACAGCAAUAUUACGUACA has a reported self-splicing fitness (ln) of -0.215

Memo: UAGAAGCAAUAUUACGUACA , reported self-splicing fitness (ln): 0.208

CACGAGCAAUAUUACGCAGU has a reported self-splicing fitness (ln) of -3.5

Record summary for CUAAAGCAAUAUUACGACAC : reported self-splicing fitness (ln) = -1.88

AAGGAGCAAUAUUACGAUUG yielded self-splicing fitness (ln) of -0.948

----------
assay: self-splicing fitness, log relative to wild type (ln ratio); higher = more splicing; Tetrahymena group I intron in knt gene, E. coli kanamycin selection, DiMSum; sequences stand for … in CUCUCU…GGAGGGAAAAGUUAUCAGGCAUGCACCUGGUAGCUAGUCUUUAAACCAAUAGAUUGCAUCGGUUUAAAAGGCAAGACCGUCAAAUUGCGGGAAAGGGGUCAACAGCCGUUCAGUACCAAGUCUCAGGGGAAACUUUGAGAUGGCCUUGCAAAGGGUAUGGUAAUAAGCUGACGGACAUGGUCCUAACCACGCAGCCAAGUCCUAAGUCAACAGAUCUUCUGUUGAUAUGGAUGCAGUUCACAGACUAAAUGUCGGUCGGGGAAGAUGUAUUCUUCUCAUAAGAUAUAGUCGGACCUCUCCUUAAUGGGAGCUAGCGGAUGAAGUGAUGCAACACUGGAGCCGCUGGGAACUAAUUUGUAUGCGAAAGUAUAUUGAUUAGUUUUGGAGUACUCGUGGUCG; settings: 37 °C
Binary classification by self-splicing fitness (ln), with -1 as an inclusive lower bound for label 1; all other cases are label 0.

Would you please look over these solved cases?
MACROMOLECULE_SEQUENCE | GROUP
AAGUAGCAAUAUUACGUGUU | label 0
CGGCAGCAAUAUUACGGCGA | label 0
UAGAAGCAAUAUUACGCACA | label 1
UAAUAGCAAUAUUACGUUCU | label 0
CCGGAGCAAUAUUACGGCAG | label 0
AAGAAGCAAUAUUACGUAAU | label 0
ACCAAGCAAUAUUACGACGC | label 1
GGACAGCAAUAUUACGGGAC | label 0

query: Does self-splicing fitness (ln) meet or surpass -1 for AGUAAGCAAUAUUACGACCU ?
result: label 1

query: Kindly determine if self-splicing fitness (ln) recorded for CUUUAGCAAUAUUACGUCGU is above or exactly -1.
result: label 0
